Would you kindly list pIC50 for each of these molecules?
testedSystem: Syk (Homo sapiens, UniProt P43405)
testName: High Throughput Syk Biochemical Assay (KinEASE TR-FRET)
conditionSet: TABLE D, 20 μM ATP, 1 μM biotinylated peptide, 0.015 nM Syk, 30 min at room temperature, read-out: IC50
Scale note: pIC50 = -log10(concentration in M).

// returns reported pIC50 for input COCC[C@@H](Oc1nc(-c2cnn(C(C)(C)C)c2)cc2ncn(C)c12)[C@H]1CNC(=O)C1 6.77

// query: COc1ccc(-c2cc3nc(C)n(C(F)F)c3c(O[C@H](C)[C@H]3CNC(=O)C3)n2)cc1OC 7.29

Another molecule to check: C[C@@H](Oc1nc(-c2ccc3cnn(C)c3c2)cc2ncn(C)c12)[C@H]1CNC(=O)C1 7.77

Query CC(C)n1cc(-c2cc(O[C@H](C)[C@H]3CNC(=O)C3)c3ccnn3c2)cn1 next 8.38

Another: C[C@@H](Oc1nc(-c2ccc(S(=O)(=O)N(C)C)cc2)cc2ncn(C)c12)[C@H]1CNC(=O)C1 7.87

Same question, C[C@@H](Oc1nc(-c2cnc(C(C)(C)C)s2)cc2ncn(C)c12)[C@H]1CNC(=O)C1 this time 8.01

Same question for COc1cc(-c2cc(O[C@H](C)[C@H]3CNC(=O)C3)c3ccnn3c2)cc(OC)c1OC please. 7.07

What do you have for C[C@@H](Oc1cc(-c2ccc(N3CCN(C4CCOCC4)CC3)cn2)cc2ncsc12)[C@H]1CNC(=O)C1 (stereo in doubt) ? 8.58

###

Could you please report measured pIC50 for the items listed next?
testedSystem: UniProt:P43405
testName: High Throughput Syk Biochemical Assay (KinEASE TR-FRET)
conditionSet: TABLE D, 20 μM ATP, 1 μM biotinylated peptide, 0.015 nM Syk, 30 min at room temperature, read-out: IC50
Procedure: High Throughput Syk Biochemical Assay Syk activity was measured using KinEASE (Cisbio), a time-resolved fluorescence resonance energy transfer (TR-FRET) immunoassay. In this assay. Syk-catalyzes the phosporylation of a XL665-labeled peptide substrate. Europium conjugated phospho-tyrosine specific antibody binds the resulting phosphorylated peptide. Formation of phosphorylated peptide is quantified by TR-FRET with Europium as the donor and XL665 the acceptor in a 2-step endpoint assay. […]
pIC50 here: minus log base 10 of the concentration, concentration in moles per litre.

// returns reported pIC50 for input Cc1nc2cc(-c3cnn(C(C)(C)C)c3)cc(O[C@H](C)[C@H]3CNC(=O)C3)c2s1 (stereo in doubt) 7.65

Item: COc1ccc(-c2cc3nc[nH]c3c(O[C@H](C)[C@H]3CNC(=O)C3)n2)cc1OC 6.29

Then COc1ccc(-c2cc(O[C@H](C)[C@H]3CNC(=O)C3)c3scnc3c2)cc1OC (stereo in doubt) ? 8.30

Consider next the compound C[C@@H](Oc1nc(-c2csc(C(C)(C)C)n2)cc2ncn(C)c12)[C@H]1CNC(=O)C1 in the same way. 7.71

Entry C[C@@H](Oc1nc(-c2cnn(C)c2)cc2ncn(C)c12)[C@H]1CNC(=O)C1 please 7.61

Next compound: Cc1cnn2cc(-c3ccc(N4CCOCC4)cc3)nc(O[C@H](C)[C@H]3CNC(=O)C3)c12 9.42

Param item: C[C@@H](Oc1nc(-c2ccc(N3CCNCC3)cc2)cc2ncn(C)c12)[C@H]1CNC(=O)C1 8.08

Repeat for the following compound: COc1ccc(-c2cc(O[C@H](C)[C@H]3CNC(=O)C3)c3ccnn3c2)cc1OC 7.41

Could you do the same for C[C@@H](Oc1nc(-c2ccc3c(c2)OC(F)(F)O3)cc2ncn(C)c12)[C@H]1CNC(=O)C1 , please? 6.83

Try the compound Cn1cnc2cc(-c3cnn(C(C)(C)C)c3)nc(O[C@H](CC(F)F)[C@H]3CNC(=O)C3)c21 7.02

Likewise for C[C@@H](Oc1cc(-c2ccc(N3CCN(C(=O)OC(C)(C)C)CC3)cn2)cc2ncsc12)[C@H]1CNC(=O)C1 (stereo in doubt) ? 8.29

// repeat for COc1ccc(-c2cc3ncn(C4CCC4)c3c(O[C@H](C)[C@H]3CNC(=O)C3)n2)cc1OC and report 7.63

Queued: C[C@@H](Oc1cc(-c2cnn(C(C)(C)C)c2)cc2ncn(C)c12)[C@H]1CNC(=O)C1 8.27

Entry CC(C)Cn1cc(-c2cc3ncn(C)c3c(O[C@H](C)[C@H]3CNC(=O)C3)n2)cn1 please 7.80

One more compound: C[C@@H](Oc1cc(-c2cc3c(cnn3C)s2)cc2ncsc12)[C@H]1CNC(=O)C1 (stereo in doubt) 8.53

Try this compound next: C[C@@H](Oc1nc(-c2ccc(C#N)cc2)cc2ncn(C)c12)[C@H]1CNC(=O)C1 7.55

Continue with COc1ccc(-c2cc3ncn(C)c3c(O[C@H](C)[C@H]3CNC(=O)C3)n2)nc1OC 7.47
